EXPERIMENTAL_SYSTEM: T1, cynomolgus monkey PVRIG (Novoprotein, Cat NO. C09B) (cynomolgus monkey, UniProt A0A2K5WVV8 41-171)
T1 construct: also called cynomolgus monkey PVRIG protein
T1 sequence: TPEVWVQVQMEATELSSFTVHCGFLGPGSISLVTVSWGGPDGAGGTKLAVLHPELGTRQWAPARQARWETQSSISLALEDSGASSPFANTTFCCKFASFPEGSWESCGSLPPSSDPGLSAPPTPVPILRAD
PROCEDURE_SUMMARY: ELISA, antigen coated
Recorded % relative activity parental antibody/tested antibody values for a group of binders are listed next.
Answer with a number only, understood to be in %.

BINDER: PVRIG-A118-H4 (Fc fusion, humanized variant of PVRIG-A118; also called A118.VH4; not shown: constant part not restated for the humanized forms; parents are VHH-hinge-CH2-CH3 of human IgG1; detected by anti-human) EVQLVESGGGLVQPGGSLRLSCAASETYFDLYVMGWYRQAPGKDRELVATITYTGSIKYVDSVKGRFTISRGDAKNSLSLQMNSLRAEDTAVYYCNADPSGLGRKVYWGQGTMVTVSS
ASSAY_VALUE: 37.1
--
BINDER: PVRIG-A50-H1b (Fc fusion, humanized variant of PVRIG-A50; also called A50.VH1b; not shown: constant part not restated for the humanized forms; parents are VHH-hinge-CH2-CH3 of human IgG1; detected by anti-human) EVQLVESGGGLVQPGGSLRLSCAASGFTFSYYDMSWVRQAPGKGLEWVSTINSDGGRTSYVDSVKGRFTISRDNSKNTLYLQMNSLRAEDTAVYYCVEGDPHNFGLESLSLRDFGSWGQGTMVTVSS
ASSAY_VALUE: 75.8
--
BINDER: PVRIG-A105-H3a (Fc fusion, humanized variant of PVRIG-A105; also called A105.VH3a; not shown: constant part not restated for the humanized forms; parents are VHH-hinge-CH2-CH3 of human IgG1; detected by anti-human) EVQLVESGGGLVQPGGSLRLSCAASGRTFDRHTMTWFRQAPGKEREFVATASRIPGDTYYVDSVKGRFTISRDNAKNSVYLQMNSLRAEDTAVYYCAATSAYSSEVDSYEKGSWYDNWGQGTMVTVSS
ASSAY_VALUE: 2.53
--
BINDER: PVRIG-A118-H1 (Fc fusion, humanized variant of PVRIG-A118; also called A118.VH1; not shown: constant part not restated for the humanized forms; parents are VHH-hinge-CH2-CH3 of human IgG1; detected by anti-human) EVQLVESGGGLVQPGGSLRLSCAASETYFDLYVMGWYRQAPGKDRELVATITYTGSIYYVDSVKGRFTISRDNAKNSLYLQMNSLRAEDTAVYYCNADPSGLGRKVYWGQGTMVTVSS
ASSAY_VALUE: 4.62
--
BINDER: PVRIG-A118-H3 (Fc fusion, humanized variant of PVRIG-A118; also called A118.VH3; not shown: constant part not restated for the humanized forms; parents are VHH-hinge-CH2-CH3 of human IgG1; detected by anti-human) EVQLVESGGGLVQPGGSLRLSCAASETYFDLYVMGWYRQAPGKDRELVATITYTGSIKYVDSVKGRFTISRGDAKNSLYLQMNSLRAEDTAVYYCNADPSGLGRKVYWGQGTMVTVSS
ASSAY_VALUE: 34
--
BINDER: PVRIG-A50-H1a (Fc fusion, humanized variant of PVRIG-A50; also called A50.VH1a; not shown: constant part not restated for the humanized forms; parents are VHH-hinge-CH2-CH3 of human IgG1; detected by anti-human) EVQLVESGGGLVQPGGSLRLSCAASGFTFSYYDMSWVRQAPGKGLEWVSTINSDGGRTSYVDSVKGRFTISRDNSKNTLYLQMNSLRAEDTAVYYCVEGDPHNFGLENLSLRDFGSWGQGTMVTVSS
ASSAY_VALUE: 66.4

Task: // lookup % relative activity parental antibody/tested antibody for PVRIG-A50-H1 (Fc fusion, humanized variant of PVRIG-A50; also called A50.VH1; not shown: constant part not restated for the humanized forms; parents are VHH-hinge-CH2-CH3 of human IgG1; detected by anti-human) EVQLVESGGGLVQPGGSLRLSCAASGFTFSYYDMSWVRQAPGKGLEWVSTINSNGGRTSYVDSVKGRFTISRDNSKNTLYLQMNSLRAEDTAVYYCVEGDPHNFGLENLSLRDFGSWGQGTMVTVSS
Output: 95.1

Task: // lookup % relative activity parental antibody/tested antibody for PVRIG-A50-H1e (Fc fusion, humanized variant of PVRIG-A50; also called VH1e; not shown: constant part not restated for the humanized forms; parents are VHH-hinge-CH2-CH3 of human IgG1; detected by anti-human) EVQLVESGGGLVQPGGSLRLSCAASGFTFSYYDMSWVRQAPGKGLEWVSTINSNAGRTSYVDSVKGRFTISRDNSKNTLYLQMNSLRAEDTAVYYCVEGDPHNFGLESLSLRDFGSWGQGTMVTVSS
Output: 89.5

Task: // lookup % relative activity parental antibody/tested antibody for PVRIG-A118-H6 (Fc fusion, humanized variant of PVRIG-A118; also called A118.VH6; not shown: constant part not restated for the humanized forms; parents are VHH-hinge-CH2-CH3 of human IgG1; detected by anti-human) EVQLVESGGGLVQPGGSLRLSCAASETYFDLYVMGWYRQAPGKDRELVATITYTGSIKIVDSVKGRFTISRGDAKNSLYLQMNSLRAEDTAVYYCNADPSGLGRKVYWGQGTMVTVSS
Output: 48.4
